Target: T1, biotinylated human DLL3 protein expressed as a human IgG1 fusion protein (human, UniProt Q9NYJ7 27-492, limits assumed, biotinylated)
T1 sequence: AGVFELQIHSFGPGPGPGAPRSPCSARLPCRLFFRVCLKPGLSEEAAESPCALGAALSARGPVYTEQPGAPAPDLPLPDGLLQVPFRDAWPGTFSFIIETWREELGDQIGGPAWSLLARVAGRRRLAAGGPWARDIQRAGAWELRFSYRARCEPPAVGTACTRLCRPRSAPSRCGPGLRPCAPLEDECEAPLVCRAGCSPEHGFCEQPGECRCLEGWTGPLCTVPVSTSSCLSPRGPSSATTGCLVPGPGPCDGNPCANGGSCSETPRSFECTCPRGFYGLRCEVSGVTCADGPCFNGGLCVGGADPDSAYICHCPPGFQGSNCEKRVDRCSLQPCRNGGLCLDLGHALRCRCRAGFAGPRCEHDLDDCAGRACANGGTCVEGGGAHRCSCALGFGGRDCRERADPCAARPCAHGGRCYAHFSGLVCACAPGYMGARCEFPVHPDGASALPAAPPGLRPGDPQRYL
Test: Octet BLI, single 50 nM
Overview of reported pKd across a group of binders:
Scale for pKd: -log10 of concentration given in mol/L; no unit attached.

1) 3B06 anti-DLL3 trispecific protein (other, not shown: linker 1808, anti-albumin sdAb, linker 1808, anti-CD3 fragment, His6 1819) EVQLVESGGGLVQPGGSLTLSCAASGKSVSFLSMAWYRQAPGKKRELVAGISKDGSTDYIDSVKGRFTISRDNAKNSVYLQMNSLRAEDTAVYYCYAYRWTTRYTYWGQGTLVTVSS ... 7.82

Request the reported pKd associated with 3A08 anti-DLL3 trispecific protein (other, not shown: linker 1808, anti-albumin sdAb, linker 1808, anti-CD3 fragment, His6 1819) EVQLVESGGGLVQPGGSLTLSCAASGSSVGFLSMAWYRQAPGKKRELVAGISADGSTDYIRSVKGRFTISRDNAKNSVYLQMNSLRAEDTAVYYCYAYRWRTRYTYWGQGTLVTVSS 7.92
